Where do the numbers come from? From the supplement of paper PMC3334620.

Consider the following sequences; for each one, report its PBM E-score.
Target: Pdr3 (UniProt P33200)
Sequence: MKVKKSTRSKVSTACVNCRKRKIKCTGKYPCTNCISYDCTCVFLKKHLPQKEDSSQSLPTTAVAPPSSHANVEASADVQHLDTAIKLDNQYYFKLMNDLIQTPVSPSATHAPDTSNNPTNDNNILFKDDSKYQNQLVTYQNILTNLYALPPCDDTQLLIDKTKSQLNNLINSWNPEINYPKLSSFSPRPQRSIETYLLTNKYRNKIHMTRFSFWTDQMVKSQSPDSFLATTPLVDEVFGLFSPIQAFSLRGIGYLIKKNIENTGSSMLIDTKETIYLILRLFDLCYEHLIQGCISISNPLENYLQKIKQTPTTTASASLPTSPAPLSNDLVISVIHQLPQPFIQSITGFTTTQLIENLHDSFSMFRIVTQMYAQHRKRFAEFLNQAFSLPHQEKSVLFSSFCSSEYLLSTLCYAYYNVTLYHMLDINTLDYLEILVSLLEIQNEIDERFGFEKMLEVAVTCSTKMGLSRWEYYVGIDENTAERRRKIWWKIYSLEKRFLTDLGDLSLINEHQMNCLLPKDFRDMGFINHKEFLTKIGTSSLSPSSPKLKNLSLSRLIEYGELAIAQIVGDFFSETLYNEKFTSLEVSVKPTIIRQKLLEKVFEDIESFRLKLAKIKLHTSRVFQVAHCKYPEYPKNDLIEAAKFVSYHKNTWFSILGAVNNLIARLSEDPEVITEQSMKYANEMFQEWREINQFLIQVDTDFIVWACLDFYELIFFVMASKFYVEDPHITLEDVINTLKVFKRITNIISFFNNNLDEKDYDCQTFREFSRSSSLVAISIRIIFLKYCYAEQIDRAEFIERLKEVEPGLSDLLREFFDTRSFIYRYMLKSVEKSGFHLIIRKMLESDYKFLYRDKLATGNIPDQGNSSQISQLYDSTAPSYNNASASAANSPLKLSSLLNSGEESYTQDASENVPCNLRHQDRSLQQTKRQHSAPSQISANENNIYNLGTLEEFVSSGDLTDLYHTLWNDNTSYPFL
Assay: PBM E-score (8-mer binding enrichment) (E-score (-0.5 to 0.5)); higher = stronger / more preferred TF binding
Conditions: protein concentration: 200 nM; construct: GST-full length
Whole data set: some 33,000 sequences, median “E-score (-0.5 to 0.5)” near -0.035, cut for the highest 2% near 0.35. What follows is part of a selection rich in the highest values, with near analogues and random picks from the rest.
// keep it numeric: no unit symbol after the value

Returns the measured PBM E-score for the input sequence. Input: ACCGTTAG -0.208

Returns the measured PBM E-score for the input sequence. Input: GATCCGGC 0.369

Returns the measured PBM E-score for the input sequence. Input: AATCCGGA 0.455

Returns the measured PBM E-score for the input sequence. Input: CAATCCGC 0.265

Returns the measured PBM E-score for the input sequence. Input: AATCCAGA 0.127

Returns the measured PBM E-score for the input sequence. Input: CATCCGGC 0.295

Returns the measured PBM E-score for the input sequence. Input: GTCAGTAA -0.145

Returns the measured PBM E-score for the input sequence. Input: CATCCGTA 0.282

Returns the measured PBM E-score for the input sequence. Input: CATCCGGA 0.426

Returns the measured PBM E-score for the input sequence. Input: GATCCGAA 0.365

Returns the measured PBM E-score for the input sequence. Input: CATCCGAA 0.282
